- assay.system: dopamine transporter (hDAT) (Homo sapiens)
- Sequence (Q01959 whole entry): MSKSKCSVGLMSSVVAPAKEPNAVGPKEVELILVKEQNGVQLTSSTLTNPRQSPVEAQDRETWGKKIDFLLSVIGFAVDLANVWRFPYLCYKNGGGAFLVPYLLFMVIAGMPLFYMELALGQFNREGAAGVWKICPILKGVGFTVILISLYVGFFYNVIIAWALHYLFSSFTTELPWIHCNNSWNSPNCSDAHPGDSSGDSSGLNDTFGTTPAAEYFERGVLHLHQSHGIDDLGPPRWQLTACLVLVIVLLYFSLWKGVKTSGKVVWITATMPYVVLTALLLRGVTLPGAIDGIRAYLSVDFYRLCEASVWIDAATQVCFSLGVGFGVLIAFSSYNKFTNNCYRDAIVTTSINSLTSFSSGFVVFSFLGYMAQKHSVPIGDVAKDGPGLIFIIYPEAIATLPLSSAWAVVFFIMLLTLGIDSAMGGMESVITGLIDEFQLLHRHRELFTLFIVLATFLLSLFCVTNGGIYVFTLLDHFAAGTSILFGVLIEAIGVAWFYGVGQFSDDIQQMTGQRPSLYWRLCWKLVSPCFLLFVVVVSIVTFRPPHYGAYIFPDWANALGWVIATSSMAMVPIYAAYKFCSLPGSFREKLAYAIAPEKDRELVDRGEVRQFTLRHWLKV
- experimental.details: [3H]DA uptake inhibition in COS-7 cells expressing hDAT
- Format: cell-based
property.label: Ki (µM)
Answers are plain numbers, in µM.

Data request: Need Ki of CC(N)CCc1ccccc1Cl (stereo not shown) , thanks.
Data returned: 5.7

====

- assay.system: norepinephrine transporter (hNET) (Homo sapiens)
- Sequence (P23975 whole entry): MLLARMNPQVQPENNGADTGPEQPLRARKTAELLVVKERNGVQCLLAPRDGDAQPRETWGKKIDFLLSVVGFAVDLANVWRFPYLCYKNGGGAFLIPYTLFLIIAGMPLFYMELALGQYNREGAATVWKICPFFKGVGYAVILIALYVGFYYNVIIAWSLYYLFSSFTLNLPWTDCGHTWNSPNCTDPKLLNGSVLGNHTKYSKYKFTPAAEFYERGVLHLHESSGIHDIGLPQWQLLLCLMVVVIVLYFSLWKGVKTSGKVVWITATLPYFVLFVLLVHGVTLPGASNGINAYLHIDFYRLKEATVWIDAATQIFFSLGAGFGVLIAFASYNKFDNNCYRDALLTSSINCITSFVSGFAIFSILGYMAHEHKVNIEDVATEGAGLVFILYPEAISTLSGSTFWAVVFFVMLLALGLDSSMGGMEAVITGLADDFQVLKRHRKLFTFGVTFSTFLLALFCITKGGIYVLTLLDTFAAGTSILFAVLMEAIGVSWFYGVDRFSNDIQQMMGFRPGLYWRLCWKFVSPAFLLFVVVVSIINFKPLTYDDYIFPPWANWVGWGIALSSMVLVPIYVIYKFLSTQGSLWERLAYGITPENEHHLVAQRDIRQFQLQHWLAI
- experimental.details: [3H]NE uptake inhibition in COS-7 cells expressing hNET
property.label: Ki (µM)
Answers are plain numbers, in µM.

Data request: Need Ki of CC(N)CCc1ccccc1Cl (stereo not shown) , thanks.
Data returned: 0.57

Sourced from paper PMC6424628
